Origin of values: BindingDB's records for doi:10.1021/acsmedchemlett.0c00405

Listed below: pEC50 values for each entry.
- experiment summary: Modulation of human utrophinA expressed in mouse H2K-mdx utrnA-luc cells assessed as upregulation of utrophin production after 24 hrs by luciferase reporter gene assay
pEC50 is defined as minus the log10 of a concentration measured in mol/L.

Reference set (2 entries):
compound	pEC50
CCP(=O)(OC)c1ccc2oc(-c3ccc4c(c3)OC(F)(F)O4)nc2c1 (stereo not given)	6.28
CCP(=O)(OC)c1ccc2oc(-c3ccc(C(F)F)cc3)nc2c1 (stereo not given)	6.12

response.value for CCP(=O)(OC)c1ccc2nc(-c3ccccc3C(F)F)oc2c1 (stereo not given) (field: pEC50) = 6.30

response.value for CCP(=O)(OC)c1ccc2oc(-c3cccc(C(F)F)c3)nc2c1 (stereo not given) (field: pEC50) = 6.05

response.value for CCP(=O)(OC)c1ccc2oc(-c3cccc(OC(F)F)c3)nc2c1 (stereo not given) (field: pEC50) = 6.17

response.value for CCP(=O)(OC)c1ccc2nc(-c3ccc(C(F)F)cc3)oc2c1 (stereo not given) (field: pEC50) = 5.72

response.value for CCP(=O)(OC)c1ccc2oc(-c3ccc(F)cc3C(F)F)nc2c1 (stereo not given) (field: pEC50) = 6.24

###

- experiment summary: Modulation of human utrophinA expressed in mouse H2K-mdx utrnA-luc cells assessed as upregulation of utrophin production after 24 hrs by luciferase reporter gene assay
Listed below: EC50 values for each entry.
Answer with a number only, understood to be in nM.

Reference set (3 entries):
compound	units of measure	EC50
CCP(=O)(OC)c1ccc2oc(-c3cccc(OC)c3)nc2c1 (stereo not drawn)	nM	157
CCP(=O)(OC)c1ccc2oc(-c3cncc(C(F)(F)F)c3)nc2c1 (stereo not drawn)	nM	4170
CCP(=O)(OC)c1ccc2oc(-c3ccccc3C(F)F)nc2c1 (stereo not drawn)	nM	1260

response.value for CCP(=O)(OC)c1ccc2oc(-c3ccc(OC)cc3)nc2c1 (stereo not drawn) (field: EC50) = 510

response.value for CCP(=O)(OC)c1ccc2oc(-c3cncc(C(F)F)c3)nc2c1 (stereo not drawn) (field: EC50) = 5900

response.value for CCP(=O)(OC)c1ccc2oc(-c3ccnc(OC(F)F)c3)nc2c1 (stereo not drawn) (field: EC50) = 309
